B1: Subtilisin-chymotrypsin inhibitor-2A, P01053 (parent)
chain: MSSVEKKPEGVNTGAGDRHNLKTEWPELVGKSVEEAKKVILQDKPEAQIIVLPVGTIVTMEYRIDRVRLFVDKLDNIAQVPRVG

variants of: B1; conditions: Hordeum vulgare; pH 3; Thermal; DSC; glycine-HCl 10 mM; structure 2CI2; whole UniProt chain shown
Measured Tm values are reported for all entries that follow.
Just the number please, in °C, no unit attached.

     mutant_label  measure_name  endpoint_value
0            S32A            Tm              58
1       E34A E35A            Tm            60.1
2  S32A E34A E35A            Tm            56.2

Alright, here's another variant for you.
Tm for S32G E34A E35A ?
56.5
